Where these numbers come from: patent US20120245137A1

target: T-type calcium channel (Homo sapiens, UniProt O95180); test: T-type channel blocking, FLIPR data (Table 6); type: cell-based; conditions: CAv3.2, closed state, read-out: CAv3.2 IC50 Closed
Sequence (O95180 whole entry): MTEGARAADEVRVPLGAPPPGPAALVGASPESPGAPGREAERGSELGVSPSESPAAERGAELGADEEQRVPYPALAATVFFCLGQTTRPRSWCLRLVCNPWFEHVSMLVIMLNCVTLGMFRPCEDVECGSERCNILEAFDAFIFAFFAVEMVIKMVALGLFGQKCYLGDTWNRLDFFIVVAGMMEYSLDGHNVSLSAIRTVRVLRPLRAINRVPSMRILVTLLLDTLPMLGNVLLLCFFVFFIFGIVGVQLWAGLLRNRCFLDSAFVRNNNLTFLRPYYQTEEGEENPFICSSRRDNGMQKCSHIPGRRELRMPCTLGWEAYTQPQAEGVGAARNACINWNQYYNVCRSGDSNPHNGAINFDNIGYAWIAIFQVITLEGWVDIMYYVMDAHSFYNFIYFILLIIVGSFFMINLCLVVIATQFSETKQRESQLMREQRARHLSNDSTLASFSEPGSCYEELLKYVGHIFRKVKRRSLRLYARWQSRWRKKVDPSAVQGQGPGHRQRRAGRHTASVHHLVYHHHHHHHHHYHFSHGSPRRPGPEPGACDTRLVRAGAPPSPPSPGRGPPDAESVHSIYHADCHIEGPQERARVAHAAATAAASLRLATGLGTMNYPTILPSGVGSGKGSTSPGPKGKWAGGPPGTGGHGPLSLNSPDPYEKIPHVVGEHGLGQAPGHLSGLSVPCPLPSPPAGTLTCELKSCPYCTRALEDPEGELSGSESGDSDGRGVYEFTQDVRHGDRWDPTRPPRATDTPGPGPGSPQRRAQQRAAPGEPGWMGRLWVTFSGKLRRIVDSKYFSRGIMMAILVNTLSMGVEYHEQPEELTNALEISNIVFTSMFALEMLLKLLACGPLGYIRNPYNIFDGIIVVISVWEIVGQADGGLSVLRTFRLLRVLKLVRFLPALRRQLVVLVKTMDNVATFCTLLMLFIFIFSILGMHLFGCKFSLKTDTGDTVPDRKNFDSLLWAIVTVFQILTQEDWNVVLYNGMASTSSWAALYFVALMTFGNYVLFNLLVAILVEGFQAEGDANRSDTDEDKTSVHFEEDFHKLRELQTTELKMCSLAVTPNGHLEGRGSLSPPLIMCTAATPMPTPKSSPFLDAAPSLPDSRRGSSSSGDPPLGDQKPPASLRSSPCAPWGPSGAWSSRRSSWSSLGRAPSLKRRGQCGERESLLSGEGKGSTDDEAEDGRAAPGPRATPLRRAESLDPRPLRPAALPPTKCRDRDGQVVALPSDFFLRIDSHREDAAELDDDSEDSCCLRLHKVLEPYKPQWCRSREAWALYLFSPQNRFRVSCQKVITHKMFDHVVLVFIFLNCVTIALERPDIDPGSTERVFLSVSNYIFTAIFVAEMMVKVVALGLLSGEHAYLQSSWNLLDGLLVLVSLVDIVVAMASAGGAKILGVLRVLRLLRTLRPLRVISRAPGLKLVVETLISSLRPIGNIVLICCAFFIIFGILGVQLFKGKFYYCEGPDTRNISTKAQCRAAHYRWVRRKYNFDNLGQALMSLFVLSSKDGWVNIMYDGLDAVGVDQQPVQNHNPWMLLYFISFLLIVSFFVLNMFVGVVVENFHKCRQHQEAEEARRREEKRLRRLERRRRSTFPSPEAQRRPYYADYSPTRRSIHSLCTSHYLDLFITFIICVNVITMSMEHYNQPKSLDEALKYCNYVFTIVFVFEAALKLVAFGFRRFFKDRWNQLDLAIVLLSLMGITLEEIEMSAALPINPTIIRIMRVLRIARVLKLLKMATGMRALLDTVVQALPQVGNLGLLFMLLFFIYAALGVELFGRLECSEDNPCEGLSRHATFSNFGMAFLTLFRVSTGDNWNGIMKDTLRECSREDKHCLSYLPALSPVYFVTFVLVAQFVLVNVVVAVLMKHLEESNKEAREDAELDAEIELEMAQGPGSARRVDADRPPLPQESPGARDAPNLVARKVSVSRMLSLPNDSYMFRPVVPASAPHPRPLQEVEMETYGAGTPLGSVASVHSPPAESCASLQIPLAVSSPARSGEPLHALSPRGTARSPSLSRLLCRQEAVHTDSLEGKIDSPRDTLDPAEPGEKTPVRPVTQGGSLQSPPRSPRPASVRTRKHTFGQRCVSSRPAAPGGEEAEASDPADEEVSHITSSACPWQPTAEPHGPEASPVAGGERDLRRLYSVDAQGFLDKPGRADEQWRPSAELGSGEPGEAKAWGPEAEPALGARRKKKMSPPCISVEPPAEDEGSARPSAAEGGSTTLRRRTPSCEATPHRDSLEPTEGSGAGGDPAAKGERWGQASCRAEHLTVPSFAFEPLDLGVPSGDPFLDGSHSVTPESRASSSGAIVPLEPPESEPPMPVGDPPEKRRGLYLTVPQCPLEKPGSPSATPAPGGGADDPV
pIC50: −log10 of the molar value.
Listing of recorded pIC50 by entry.
parameterMeasured: pIC50

> print(dat)
                    compoundstructurestring  parametermeasured  modifier  reportedresult
1  CC(C)([C@H]1C[C@H](NC(=O)c2ccnc(C(F)(F)F)c2)C1)S(=O)(=O)c1cccc(C(F)(F)F)c1              pIC50         =            5.23
2  CC(C)([C@H]1C[C@H](NS(=O)(=O)c2ccc(C(F)(F)F)nc2)C1)S(=O)(=O)c1cc(F)cc(C(F)(F)F)c1              pIC50         ≤            5.00
3  CC(C)([C@H]1C[C@@H](NS(=O)(=O)c2ccc(C(F)(F)F)cc2Cl)C1)S(=O)(=O)c1cc(F)cc(C(F)(F)F)c1              pIC50         ≤            5.00
4  CC(C)([C@H]1C[C@@H](C(=O)Nc2ccc(C(F)(F)F)cn2)C1)S(=O)(=O)c1cccc(C(F)(F)F)c1              pIC50         =            5.39
5  Cc1nc(S(=O)(=O)N[C@H]2C[C@@H](C(C)(C)S(=O)(=O)c3cc(F)cc(C(F)(F)F)c3)C2)cn1C              pIC50         ≤            5.00
6  CC(C)([C@H]1C[C@H](NC(=O)c2ccc(C(F)(F)F)cn2)C1)S(=O)(=O)c1cccc(C(F)(F)F)c1              pIC50         =            5.37

###

IC50 values by entry
molecular target: N-type calcium channel subunits (α1B, α2δ, and β3a) (Homo sapiens, UniProt Q00975); test: Block of Cav2.2 channel, whole cell voltage clamp, manual and PatchXpress; assay type: cell-based; conditions: Table 5; table follows Assay Example 3 (whole cell voltage clamp / PatchXpress); assay not given
parameterMeasured: IC50 (nM)

> print(dat)
                                   compound  reportedresult
1  Cc1nn(C)c(C)c1S(=O)(=O)N[C@H]1CC[C@@](F)(S(=O)(=O)c2cccc(C(F)(F)F)c2)CC1 [Compound 293]            1630
2  CC1(S(=O)(=O)c2cccc(C(F)(F)F)c2)CCC(NC(=O)c2cc(C(F)(F)F)ccn2)CC1 (stereo not drawn) [Compound 21]             200
3  O=C(N[C@H]1CC[C@@H](S(=O)(=O)c2cc(F)cc(C(F)(F)F)c2)CC1)c1ccc(F)c(Cl)c1 [Compound 320]             600
4  CC1(S(=O)(=O)c2cccc(C(F)(F)F)c2)CCN(C(=O)CNC2CCCCC2)CC1 [Compound 18]             390
5  Cn1nc(C(F)(F)F)cc1C(=O)N[C@H]1C[C@H](S(=O)(=O)c2cccc(C(F)(F)F)c2)C1 [Compound 226]            2150
6  O=C(N[C@H]1CC[C@H](CS(=O)(=O)c2cccc(C(F)(F)F)c2)CC1)c1cc(-c2ccc(F)cc2)n[nH]1 [Compound 108]             720
7  CC(C)(C)NC(=O)CN[C@H]1CC[C@@H](S(=O)(=O)c2cccc(C(F)(F)F)c2)CC1 [Compound 49]             200
8  CS(=O)(=O)c1cc(C(=O)N[C@H]2CC[C@@](F)(S(=O)(=O)c3cccc(C(F)(F)F)c3)CC2)cc(C(F)(F)F)n1 [Compound 273]             430
9  CC1(S(=O)(=O)c2cccc(C(F)(F)F)c2)CCC(NC(=O)c2ccc(C(F)(F)F)nc2)CC1 (stereo not drawn) [Compound 1]            1030
